System: CCRIS mutagenicity, Ames/micronucleus/aberration tests
Experiment: CCRIS mutagenicity studies
Conditions: Test System: AMES SALMONELLA TYPHIMURIUM; Strain/Indicator: TA98; Metabolic Activation: RAT, LIVER, S-9, AROCLOR 1254; Method: STANDARD PLATE
Activity calls are given as the source filed them. No rule for the calls is given here.
Entry note: the call must match one of class 1 = active, class 0 = inactive

Hi, sorry to bother you, what did the test record for C\C=C(/C=C(C)/C=C(C)/C=C/C=C(\C)C(=O)[C@]12O[C@H]1[C@@](O)(CCO)NC2=O)C(=O)OC ?
class 1

* * *

System: CCRIS mutagenicity, Ames/micronucleus/aberration tests
Experiment: CCRIS mutagenicity studies
Conditions: Test System: AMES SALMONELLA TYPHIMURIUM; Strain/Indicator: TA98; Metabolic Activation: RAT, LIVER, S-9, AROCLOR 1254; Method: STANDARD PLATE
Active and inactive are the calls of the source. The rule behind the calls is not given here.
Entry note: the call must match one of y (active), n (inactive)

Examples from the recorded data:
Hi, sorry to bother you, what did the test record for ON=C1CCCCC1 ?
n

Can you handle CCCON=O next?
n

Can you handle CC(O)Cc1cc(N)cc([N+](=O)[O-])c1N (stereo not drawn) next?
n

Can you handle c1ccc2c(c1)ccc1[nH]c3ccc4ccccc4c3c12 next?
n

Can you handle CN(C)c1ccc(N=Nc2ccccc2)cc1 next?
y

***
Hi, sorry to bother you, what did the test record for O=C1NC(=O)C(c2ccccc2)(c2ccc(O)cc2)N1 (stereo not drawn) ?
n

Can you handle Nc1ccc(-c2ccc(N)c(Cl)c2)cc1Cl next?
y

Can you handle CN(C)c1ccc(/C=C/C(=O)c2ccccc2)cc1 next?
n

Can you handle ClCC1C(CCl)[C@@]2(Cl)C(Cl)=C(Cl)[C@]1(Cl)C2(Cl)Cl (stereo partly drawn) next?
n

* * *

Tested on: CCRIS mutagenicity, Ames/micronucleus/aberration tests
Assay: CCRIS mutagenicity studies
Details: Test System: AMES SALMONELLA TYPHIMURIUM; Strain/Indicator: TA100; Metabolic Activation: NONE; Method: STANDARD PLATE
Active and inactive are the calls of the source. The rule behind the calls is not given here.
Entry note: the call must match one of active, inactive

Examples from the recorded data:
Hi, sorry to bother you, what did the test record for CN1C(=O)CN=C(c2ccccc2)c2cc(Cl)ccc21 ?
inactive

Can you handle CC(C)=CCCC(C)CCO (configuration not stated) next?
inactive

Can you handle C1CSCCO1 next?
inactive

Can you handle O=NN1CCSC1C(O)C(O)C(O)C(O)CO (configuration not stated) next?
active

***
Hi, sorry to bother you, what did the test record for CN(C)c1ccc([C@H]2C[C@@]3(C)[C@@H](CC[C@@]3(O)/C=C\CO)[C@@H]3CCC4=CC(=O)CCC4=C32)cc1 ?
inactive

Can you handle O=C(Cl)c1ccccc1 next?
active

Can you handle COc1cc(N)cc(OC)c1N next?
inactive

* * *

Test system: CCRIS mutagenicity, Ames/micronucleus/aberration tests
Assay: CCRIS mutagenicity studies
Conditions: Test System: AMES SALMONELLA TYPHIMURIUM; Strain/Indicator: TA1535; Metabolic Activation: HAMSTER, LIVER, S-9, AROCLOR 1254 (30%); Method: PREINCUBATION
Activity calls are given as the source filed them. How the calls were made is not given here.
Entry note: the call must match one of Yes for active, No for inactive

Examples from the recorded data:
Hi, sorry to bother you, what did the test record for O=C(O)c1cccc(Cl)c1 ?
No

Can you handle CCOC(N)=O next?
Yes

Can you handle CCCCCCC=O next?
No

Can you handle CCC(CO)[N+](=O)[O-] (stereo not given) next?
No

Can you handle N#CCC#N next?
No

Can you handle O=C1c2c(O)cccc2Cc2cccc(O)c21 next?
No

Can you handle CCNc1nc(Cl)nc(NC(C)C)n1 next?
No

Can you handle O=[N+]([O-])c1c(O)c(Cl)cc(Cl)c1Cl next?
No

Can you handle CCN(CC)C(=O)c1cccc(C)c1 next?
No

Field: next molecule
Hi, sorry to bother you, what did the test record for CCCCCCCCn1sccc1=O ?
No

* * *

Tested on: CCRIS mutagenicity, Ames/micronucleus/aberration tests
Test: CCRIS mutagenicity studies
Conditions: Test System: AMES SALMONELLA TYPHIMURIUM; Strain/Indicator: TA100; Metabolic Activation: NONE; Method: STANDARD PLATE
The source made the active and inactive calls. No rule for the calls is given here.
Entry note: the call must match one of yes (1) = active, no (0) = inactive

Hi, sorry to bother you, what did the test record for O=S(=O)(NO)c1cccc2cccnc12 ?
no (0)

Can you handle CC(C)(C)OC(=O)O/N=C(/C#N)c1ccccc1 next?
no (0)

Can you handle COC(=O)C12OC1(C)C(C)(O)OC2=O (configuration not stated) next?
no (0)

Can you handle Cc1ccc2nc3c(c4c(c5ccccc53)O4)c(C)c2c1 next?
yes (1)

Can you handle CCOc1ccc2c(c1)C(C)=CC(C)(C)N2 next?
no (0)

***
Hi, sorry to bother you, what did the test record for O=C1c2c(O)cccc2Cc2cccc(O)c21 ?
no (0)

Can you handle CC(=O)O[C@H]1[C@H](OC(C)=O)COC(Nc2ccc([N+](=O)[O-])cc2)[C@@H]1OC(C)=O (some centres not stated) next?
no (0)

* * *

System: CCRIS mutagenicity, Ames/micronucleus/aberration tests
Experiment: CCRIS mutagenicity studies
Conditions: Test System: AMES SALMONELLA TYPHIMURIUM; Strain/Indicator: TA98; Metabolic Activation: NONE; Method: STANDARD PLATE
Calls of active or inactive are those of the source. The rule behind the calls is not given here.
Observation type: mutagenic call

Look up mutagenic call: COc1cccc(/C=C/c2ccc(N)cc2)c1
active; positive

Can you handle CC1OC(OC2CC(O)(CO)Cc3c(O)c4c(c(O)c32)C(=O)c2ccccc2C4=O)C(I)C(O)C1O (configuration not stated) next?
inactive; negative

Can you handle O=C(O)O next?
inactive; negative

Can you handle COc1cccc2c1C(=O)c1c(O)c3c(c(O)c1C2=O)C[C@@](O)(C(=O)CO)C[C@@H]3O next?
active; positive

Can you handle CC(=O)c1cc2c(cc1C)C(C)(C)C(C)C2C(C)C (configuration not stated) next?
inactive; negative

***
Look up mutagenic call: O=[N+]([O-])c1ccc2c(c1)CCc1ccccc1-2
active; positive

Can you handle CC(O)CN(CCN(CC(C)O)CC(C)O)CC(C)O (configuration not stated) next?
inactive; negative

Can you handle COc1cccc(C=O)c1O next?
inactive; negative

Can you handle O=[N+]([O-])c1cc([N+](=O)[O-])c2c3ccccc3c3cccc4ccc1c2c43 next?
active; positive

Can you handle Cc1cc2ncccc2c2nc(N=[N+]=[N-])n(C)c12 next?
active; positive

* * *

System: CCRIS mutagenicity, Ames/micronucleus/aberration tests
Experiment: CCRIS mutagenicity studies
Details: Test System: AMES SALMONELLA TYPHIMURIUM; Strain/Indicator: TA98; Metabolic Activation: S-9; Method: STANDARD PLATE
Calls of active or inactive are those of the source. How the calls were made is not given here.
Entry note: the call must match one of active, inactive

Hi, sorry to bother you, what did the test record for CCOc1ccc2c(c1)C(C)=CC(C)(C)N2 ?
inactive

Can you handle Clc1ccc(-c2nc3ccccc3o2)cc1 next?
inactive

Can you handle C1CSCCO1 next?
inactive

***
Hi, sorry to bother you, what did the test record for c1ccc(Nc2ccc(Nc3ccccc3)cc2)cc1 ?
inactive

Can you handle N#Cc1cccc(/C=C/c2ccc(N)cc2)c1 next?
active

Can you handle CC(C)=CCC/C(C)=C/CO next?
inactive

Can you handle COc1nsc2c(N)cccc12 next?
active

Can you handle CC(O)CN(CCN(CC(C)O)CC(C)O)CC(C)O (centres undefined) next?
inactive

Can you handle CC(C)=CCCC(C)CCO (centres undefined) next?
inactive

Can you handle Nc1ccc(-c2ccc(N)c(Cl)c2)cc1Cl next?
active

Can you handle Cc1ccco1 next?
inactive

Can you handle Oc1ccc(Cl)cc1Cl next?
inactive

Can you handle O=C(CCl)Nc1snc2cc(Cl)ccc12 next?
active

Can you handle CC1(C)C(C(=O)OC(C#N)c2cccc(Oc3ccccc3)c2)C1(C)C (centres undefined) next?
inactive

Can you handle CC(C)(C)c1cc(-c2ccccc2)ccc1NO next?
active

* * *

System: CCRIS mutagenicity, Ames/micronucleus/aberration tests
Experiment: CCRIS mutagenicity studies
Conditions: Test System: AMES SALMONELLA TYPHIMURIUM; Strain/Indicator: TA98; Metabolic Activation: NONE; Method: PREINCUBATION
Activity calls are given as the source filed them. How the calls were made is not given here.
Entry note: the call must match one of active, inactive

Examples from the recorded data:
Hi, sorry to bother you, what did the test record for Cc1ccc2nc3c(ccc4ccccc43)c(C)c2c1 ?
inactive

Can you handle C=C[Si](OCC)(OCC)OCC next?
inactive

Can you handle CCCN(CCC)C(=O)SCC next?
inactive

Can you handle Nc1ccc(Cc2ccc(N)cc2)cc1 next?
inactive

***
Hi, sorry to bother you, what did the test record for O=c1c(=O)c2cccc3ccc4cccc1c4c32 ?
inactive

Can you handle C[C@H](CCC(=O)O)[C@H]1CC[C@H]2[C@@H]3C(=O)C[C@@H]4CC(=O)CC[C@]4(C)[C@H]3CC[C@]12C next?
inactive
